Catalogue of IC50 values
Target: Dopa decarboxylase (Aromatic L-amino acid decarboxylase), isoform CRA_a (Homo sapiens)
Sequence (Q53Y41 whole entry, canonical isoform): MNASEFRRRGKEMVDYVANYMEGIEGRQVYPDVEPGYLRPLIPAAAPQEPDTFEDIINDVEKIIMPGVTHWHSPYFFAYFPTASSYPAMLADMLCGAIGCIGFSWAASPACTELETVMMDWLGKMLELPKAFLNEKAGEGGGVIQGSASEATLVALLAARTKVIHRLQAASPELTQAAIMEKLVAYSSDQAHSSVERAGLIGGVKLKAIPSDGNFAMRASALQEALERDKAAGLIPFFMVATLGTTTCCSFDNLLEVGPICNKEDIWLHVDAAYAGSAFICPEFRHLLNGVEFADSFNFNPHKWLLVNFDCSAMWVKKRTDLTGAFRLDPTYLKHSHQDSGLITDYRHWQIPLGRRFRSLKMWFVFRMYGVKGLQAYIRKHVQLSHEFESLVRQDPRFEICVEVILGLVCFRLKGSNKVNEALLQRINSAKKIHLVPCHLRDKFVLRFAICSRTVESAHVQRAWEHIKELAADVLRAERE
Assay: DDC-MDH-PEPC-Linked assay
Conditions: pH 8.05; 37 °C
State just the number; it will be interpreted in µM.

Would you please look over these solved cases?
>>> reported("COc1cc(CC=C(c2cc(O)c(OC)cc2O)c2c(OC)cc3c(c2O)CCC(c2ccc(O)c(O)c2)O3)ccc1O (stereo not drawn) [(+)-Euonyquinone C (9)]")
100
>>> reported("COc1cc(CC=C(c2cc(O)c(OC)cc2O)c2c(OC)cc3c(c2O)CCC(c2ccc(O)c(OC)c2)O3)ccc1O (stereo unspecified)")
50
>>> reported("COc1cc(CCCc2cc(C(CCc3ccc(O)c(OC)c3)c3cc(OC)c(OC)cc3O)c(O)cc2OC)ccc1O (stereo unspecified)")
100

Turning now to a further compound:
The compound COC1=CC(=O)C(CC(=O)Cc2ccc(O)c(OC)c2)=C(c2cc(CCCc3ccc(O)c(OC)c3)c(OC)cc2O)C1=O showed IC50 equal to 11.5

The measurements presented in this section are drawn from BindingDB's records for doi:10.1021/cb500009r.
